// data source = ChEMBL document CHEMBL5108044

# System name: Cytochrome P450 2C9 (Homo sapiens, UniProt P11712)
# Sequence (P11712 whole entry): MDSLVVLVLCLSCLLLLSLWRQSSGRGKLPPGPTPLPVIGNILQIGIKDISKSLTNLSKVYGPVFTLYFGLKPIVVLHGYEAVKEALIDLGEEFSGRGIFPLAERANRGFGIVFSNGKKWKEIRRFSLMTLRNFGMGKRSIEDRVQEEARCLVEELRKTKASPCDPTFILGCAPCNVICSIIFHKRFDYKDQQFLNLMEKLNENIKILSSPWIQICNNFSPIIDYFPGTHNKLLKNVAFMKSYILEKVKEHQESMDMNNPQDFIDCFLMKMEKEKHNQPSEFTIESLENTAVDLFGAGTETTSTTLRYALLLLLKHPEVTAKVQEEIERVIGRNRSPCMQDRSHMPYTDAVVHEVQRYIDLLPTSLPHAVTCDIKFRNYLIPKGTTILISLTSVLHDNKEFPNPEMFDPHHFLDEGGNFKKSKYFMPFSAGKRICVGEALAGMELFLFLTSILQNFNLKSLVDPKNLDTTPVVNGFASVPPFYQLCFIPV
# Assay notes: Inhibition of CYP2C9 in human liver microsome
# Assay type: ADME, microsomes
Measured quantity: IC50 (µM)
Please reply with the bare figure in µM and do not write the unit itself.

Please look up its IC50: `O=C(c1ccc(-c2noc(-c3ccc(C(F)(F)F)cc3)n2)cc1)N1CCN(Cc2ccc(OCC(F)(F)F)cc2)CC1`
22.9

---

Items are presented alongside their recorded pIC50.
# System name: UniProt:P40763
# Assay notes: Inhibition of human recombinant STAT3 (127 to 722 residues) transcriptional activity expressed in HEK293T cells in presence of IL-6 by Dual-luciferase reporter gene assay
Please treat pIC50 as minus the base-10 logarithm of the molar concentration.

Worked cases, answers included:
>  <Entry smiles>
O=C(/C=C/c1ccc(OC(F)(F)F)cc1)N1CCN(C(=O)c2ccc(-c3nc(-c4ccc(C(F)(F)F)cc4)no3)nc2)CC1

>  <Readout value>
6.76

$$$$
>  <Entry smiles>
N#Cc1ccc(CN2CCN(C(=O)c3ccc(-c4nc(-c5ccc(C(F)(F)F)cc5)no4)nc3)CC2)cc1

>  <Readout value>
6.32

$$$$
>  <Entry smiles>
O=C(c1ccc(-c2nc(-c3ccc(C(F)(F)F)cc3)no2)nc1)N1CCN(Cc2ccc(Br)cc2F)CC1

>  <Readout value>
6.25

$$$$

Please look up its pIC50: `O=C(c1ccc(-c2nc(-c3ccc(C(F)(F)F)cc3)no2)nc1)N1CCN(Cc2ccc(OC(F)(F)F)cc2)CC1`
7.20

Also check `COc1ccc(-c2noc(-c3ccc(C(=O)N4CCN(Cc5ccc(OCC(F)(F)F)cc5)CC4)cn3)n2)cc1`
6.95

Also check `O=C(c1ccc(-c2nc(-c3ccc(C(F)(F)F)cc3)cs2)nc1)N1CCN(Cc2ccc(OCC(F)(F)F)cc2)CC1`
6.29

---

# Assay notes: Oral bioavailability in ICR mouse plasma at 10 mg/kg measured up to 24 hrs by LC-MS/MS analysis
# Assay type: ADME, organism-based
Measured quantity: bioavailability (%)
Please reply with the bare figure in % and do not write the unit itself.

Please look up its bioavailability: `O=C(c1ccc(-c2noc(-c3ccc(C(F)(F)F)cc3)n2)cc1)N1CCN(Cc2ccc(OCC(F)(F)F)cc2)CC1`
54.4

---

# System name: Cytochrome P450 3A4 (Homo sapiens)
# Sequence (P08684 whole entry): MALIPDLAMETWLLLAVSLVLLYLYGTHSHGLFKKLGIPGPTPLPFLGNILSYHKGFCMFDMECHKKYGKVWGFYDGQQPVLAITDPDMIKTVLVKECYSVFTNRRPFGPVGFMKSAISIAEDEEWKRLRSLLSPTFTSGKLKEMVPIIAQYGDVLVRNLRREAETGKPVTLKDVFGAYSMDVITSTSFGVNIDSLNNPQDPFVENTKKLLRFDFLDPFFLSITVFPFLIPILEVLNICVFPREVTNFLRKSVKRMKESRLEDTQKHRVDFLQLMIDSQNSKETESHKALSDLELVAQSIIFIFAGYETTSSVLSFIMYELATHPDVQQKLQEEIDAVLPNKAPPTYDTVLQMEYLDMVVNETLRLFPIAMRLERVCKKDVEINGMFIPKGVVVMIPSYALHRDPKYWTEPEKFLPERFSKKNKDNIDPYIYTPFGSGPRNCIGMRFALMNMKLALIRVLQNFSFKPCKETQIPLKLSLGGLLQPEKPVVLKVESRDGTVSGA
# Assay notes: Inhibition of CYP3A4 in human liver microsome
# Type: ADME, microsomes
pIC50: −log10 of the molar value.
Measured quantity: pIC50

Please look up its pIC50: `O=C(c1ccc(-c2noc(-c3ccc(C(F)(F)F)cc3)n2)cc1)N1CCN(Cc2ccc(OCC(F)(F)F)cc2)CC1`
< 4.30

---

# System name: Mitogen-activated protein kinase 13 (Homo sapiens)
# Sequence (O15264 whole entry): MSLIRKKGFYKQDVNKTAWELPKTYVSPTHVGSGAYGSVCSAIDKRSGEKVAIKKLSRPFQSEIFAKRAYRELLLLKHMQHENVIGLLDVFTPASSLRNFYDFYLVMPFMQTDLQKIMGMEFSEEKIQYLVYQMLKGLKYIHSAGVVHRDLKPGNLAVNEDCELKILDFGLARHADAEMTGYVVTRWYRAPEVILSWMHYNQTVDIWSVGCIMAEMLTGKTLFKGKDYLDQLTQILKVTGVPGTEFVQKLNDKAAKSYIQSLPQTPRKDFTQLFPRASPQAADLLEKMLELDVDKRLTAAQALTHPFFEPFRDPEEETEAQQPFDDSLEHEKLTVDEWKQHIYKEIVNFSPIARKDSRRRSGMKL
# Assay notes: Inhibition of p38delta (unknown origin)
pIC50: −log10 of the molar value.
Measured quantity: pIC50

Please look up its pIC50: `O=C(c1ccc(-c2noc(-c3ccc(C(F)(F)F)cc3)n2)cc1)N1CCN(Cc2ccc(OCC(F)(F)F)cc2)CC1`
< 5.00

---

# Assay notes: AUC (0 to t) in ICR mouse plasma at 10 mg/kg, po measured up to 24 hrs by LC-MS/MS analysis
# Type: ADME, organism-based
# Parameters: time < 24 hrs, dose 10 mg/kg, route po
Measured quantity: AUC(0-t) at 24 h (ng·h/mL)
Please reply with the bare figure in ng·h/mL and do not write the unit itself.

Please look up its AUC(0-t) at 24 h: `O=C(c1ccc(-c2noc(-c3ccc(C(F)(F)F)cc3)n2)cc1)N1CCN(Cc2ccc(OCC(F)(F)F)cc2)CC1`
9400

---

# System name: Tyrosine-protein kinase JAK2 (Homo sapiens, UniProt O60674)
# Sequence (O60674 whole entry): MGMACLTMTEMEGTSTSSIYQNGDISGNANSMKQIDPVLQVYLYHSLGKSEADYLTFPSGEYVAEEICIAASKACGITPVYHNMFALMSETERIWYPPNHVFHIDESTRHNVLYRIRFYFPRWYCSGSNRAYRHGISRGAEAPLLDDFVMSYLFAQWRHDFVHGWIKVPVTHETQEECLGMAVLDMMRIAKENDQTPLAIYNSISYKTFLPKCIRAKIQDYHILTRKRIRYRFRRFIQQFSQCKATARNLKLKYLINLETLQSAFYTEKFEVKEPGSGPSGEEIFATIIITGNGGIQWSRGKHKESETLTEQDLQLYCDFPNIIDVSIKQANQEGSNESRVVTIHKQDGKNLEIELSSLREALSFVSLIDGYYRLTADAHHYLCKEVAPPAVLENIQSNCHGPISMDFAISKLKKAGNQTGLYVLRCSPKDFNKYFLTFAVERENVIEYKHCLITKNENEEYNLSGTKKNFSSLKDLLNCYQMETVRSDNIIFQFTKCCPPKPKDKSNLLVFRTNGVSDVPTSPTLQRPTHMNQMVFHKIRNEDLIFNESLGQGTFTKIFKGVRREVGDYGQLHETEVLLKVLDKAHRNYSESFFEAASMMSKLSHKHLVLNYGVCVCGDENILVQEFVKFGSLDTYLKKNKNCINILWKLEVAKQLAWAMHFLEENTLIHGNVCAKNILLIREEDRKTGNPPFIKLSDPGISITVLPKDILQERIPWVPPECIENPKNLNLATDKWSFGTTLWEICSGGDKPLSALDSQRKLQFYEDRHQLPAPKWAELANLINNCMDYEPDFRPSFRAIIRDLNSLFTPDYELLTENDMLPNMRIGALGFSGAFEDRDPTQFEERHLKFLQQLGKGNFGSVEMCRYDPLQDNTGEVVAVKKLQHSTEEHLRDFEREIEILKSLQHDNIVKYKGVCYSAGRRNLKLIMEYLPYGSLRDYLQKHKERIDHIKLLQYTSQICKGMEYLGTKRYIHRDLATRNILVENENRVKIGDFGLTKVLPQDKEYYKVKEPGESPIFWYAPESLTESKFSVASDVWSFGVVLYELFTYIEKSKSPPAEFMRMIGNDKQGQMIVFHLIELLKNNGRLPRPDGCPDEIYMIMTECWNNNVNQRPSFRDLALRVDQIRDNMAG
Measured quantity: IC50

Please look up its IC50: `O=C(c1ccc(-c2noc(-c3ccc(C(F)(F)F)cc3)n2)cc1)N1CCN(Cc2ccc(OCC(F)(F)F)cc2)CC1`
> 10 µM

---

# System name: Signal transducer and activator of transcription 3 (Homo sapiens)
# Sequence (P40763 whole entry, the tested form may be a part): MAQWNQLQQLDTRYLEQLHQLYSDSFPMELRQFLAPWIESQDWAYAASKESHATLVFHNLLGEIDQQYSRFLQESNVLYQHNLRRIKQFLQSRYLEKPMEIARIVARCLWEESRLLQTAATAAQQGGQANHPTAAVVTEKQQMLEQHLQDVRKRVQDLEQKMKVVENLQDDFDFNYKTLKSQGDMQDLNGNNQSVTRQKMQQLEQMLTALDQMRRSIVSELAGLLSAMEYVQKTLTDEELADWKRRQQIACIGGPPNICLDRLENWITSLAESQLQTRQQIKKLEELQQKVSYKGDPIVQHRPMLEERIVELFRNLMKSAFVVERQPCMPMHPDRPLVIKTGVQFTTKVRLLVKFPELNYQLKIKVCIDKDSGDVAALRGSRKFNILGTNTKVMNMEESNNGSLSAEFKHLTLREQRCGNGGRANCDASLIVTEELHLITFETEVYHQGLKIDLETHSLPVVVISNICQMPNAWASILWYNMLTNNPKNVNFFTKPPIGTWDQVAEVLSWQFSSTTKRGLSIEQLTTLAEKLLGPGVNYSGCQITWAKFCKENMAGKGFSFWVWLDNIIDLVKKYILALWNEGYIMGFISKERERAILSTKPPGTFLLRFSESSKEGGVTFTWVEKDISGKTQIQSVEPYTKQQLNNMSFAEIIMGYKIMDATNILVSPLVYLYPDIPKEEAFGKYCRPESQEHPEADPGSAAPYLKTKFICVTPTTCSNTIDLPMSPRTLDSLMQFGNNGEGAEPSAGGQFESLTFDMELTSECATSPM
# Assay notes: Inhibition of human recombinant STAT3 (127 to 722 residues) transcriptional activity expressed in HEK293T cells in presence of IL-6 by Dual-luciferase reporter gene assay
Measured quantity: IC50 (nM)
Please reply with the bare figure in nM and do not write the unit itself.

>  <Entry smiles>
O=C(c1ccc(-c2nc(-c3ccc(C(F)(F)F)cc3)co2)nc1)N1CCN(Cc2ccc(OCC(F)(F)F)cc2)CC1

>  <IC50 / nM>
94.1

$$$$
>  <Entry smiles>
O=C(c1ccc(-c2nc(-c3ccc(C(F)(F)F)cc3)no2)nc1)N1CCN(Cc2ccc(Br)c(F)c2)CC1

>  <IC50 / nM>
296

$$$$
>  <Entry smiles>
O=C(c1ccc(-c2nc(-c3ccc(Br)cc3)no2)nc1)N1CCN(Cc2ccc(OCC(F)(F)F)cc2)CC1

>  <IC50 / nM>
93.2

$$$$
>  <Entry smiles>
O=C(c1ccc(-c2nc(-c3cccc(F)c3)no2)nc1)N1CCN(Cc2ccc(OCC(F)(F)F)cc2)CC1

>  <IC50 / nM>
177

$$$$
>  <Entry smiles>
O=C(c1ccc(-c2nc(-c3ccc(C(F)(F)F)cc3)no2)cn1)N1CCN(Cc2ccc(OCC(F)(F)F)cc2)CC1

>  <IC50 / nM>
75.9

$$$$
>  <Entry smiles>
O=C(c1ccc(-c2nc(-c3ccc(Cl)cc3)no2)nc1)N1CCN(Cc2ccc(OCC(F)(F)F)cc2)CC1

>  <IC50 / nM>
271

$$$$

The record that follows has no IC50 shown yet.
Please look up its IC50: `O=C(c1cnc(-c2noc(-c3ccc(C(F)(F)F)cc3)n2)cn1)N1CCN(Cc2ccc(OCC(F)(F)F)cc2)CC1`
58

---

# System name: Signal transducer and activator of transcription 3 (Homo sapiens)
# Assay notes: Inhibition of human recombinant STAT3 (127 to 722 residues) transcriptional activity expressed in HEK293T cells in presence of IL-6 by Dual-luciferase reporter gene assay
Measured quantity: pIC50
Please treat pIC50 as minus the base-10 logarithm of the molar concentration.

Worked cases, answers included:
>  <Entry smiles>
O=C(c1cc(-c2nc(-c3ccc(C(F)(F)F)cc3)no2)ccn1)N1CCN(Cc2ccc(OCC(F)(F)F)cc2)CC1

>  <System name>
Signal transducer and activator of transcription 3 (Homo sapiens)

>  <Readout value>
7.49

$$$$
>  <Entry smiles>
O=C(c1ccc(-c2nc(-c3ccc(C(F)(F)F)c(F)c3)no2)nc1)N1CCN(Cc2ccc(OCC(F)(F)F)cc2)CC1

>  <System name>
Signal transducer and activator of transcription 3 (Homo sapiens)

>  <Readout value>
7.40

$$$$
>  <Entry smiles>
O=C(c1ccc(-c2nc(-c3ccc(C(F)(F)F)cc3)no2)nc1)N1CCN(Cc2ccc(OCC(F)(F)F)cc2)CC1

>  <System name>
Signal transducer and activator of transcription 3 (Homo sapiens)

>  <Readout value>
7.43

$$$$
>  <Entry smiles>
O=C(c1ccc(-c2nc(-c3ccc(OC(F)(F)F)cc3)no2)nc1)N1CCN(Cc2ccc(OCC(F)(F)F)cc2)CC1

>  <System name>
Signal transducer and activator of transcription 3 (Homo sapiens)

>  <Readout value>
7.22

$$$$
>  <Entry smiles>
CS(=O)(=O)c1ccc(CN2CCN(C(=O)c3ccc(-c4nc(-c5ccc(C(F)(F)F)cc5)no4)nc3)CC2)cc1

>  <System name>
Signal transducer and activator of transcription 3 (Homo sapiens)

>  <Readout value>
6.56

$$$$
>  <Entry smiles>
O=C(c1ccc(-c2noc(-c3ccc(C(F)(F)F)cc3)n2)cc1)N1CCN(Cc2ccc(OCC(F)(F)F)cc2)CC1

>  <System name>
Signal transducer and activator of transcription 3 (Homo sapiens)

>  <Readout value>
7.56

$$$$

Please look up its pIC50: `O=C(c1ccc(-c2nc(-c3ccc(C(F)(F)F)cc3)no2)nc1)N1CCN(Cc2ccc(F)cc2)CC1`
6.52

Also check `O=C(c1ccc(-c2nc(-c3ccc(F)cc3)no2)nc1)N1CCN(Cc2ccc(OCC(F)(F)F)cc2)CC1`
6.91

Also check `Cc1ccc(CN2CCN(C(=O)c3ccc(-c4nc(-c5ccc(C(F)(F)F)cc5)no4)nc3)CC2)cc1`
6.74

Also check `CCCN1CCN(C(=O)c2ccc(-c3nc(-c4ccc(C(F)(F)F)cc4)no3)nc2)CC1`
6.27

Also check `CC(C)(C)c1ccc(CN2CCN(C(=O)c3ccc(-c4nc(-c5ccc(C(F)(F)F)cc5)no4)nc3)CC2)cc1`
7.06

Also check `O=C(c1ccc(-c2nc(-c3ccc(C(F)(F)F)cc3)no2)s1)N1CCN(Cc2ccc(OCC(F)(F)F)cc2)CC1`
6.78
